Assign cell viability to each entry below.
# System: K562;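 further: after 48 h exposure read by CellTiter-Glo luminescence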
# measurement.protocol: cell viability relative to vehicle control; higher = less cytotoxic
# condition.parameters: 10 µM; SRSF2 genotype: SRSF2 wt/wt
One number for each entry, in %.

Below, 5 molecules whose answers are already recorded.
| molecule | measurement.units | obs.value |
| --- | --- | --- |
| Clc1ccc(C(Cn2ccnc2)OCc2ccc(Sc3ccccc3)cc2)c(Cl)c1 (configuration not stated) [Fenticonazole nitrate] | % | 63.8 |
| OC[C@H]1O[C@H](OC[C@H]2O[C@H](O[C@]3(CO)O[C@H](CO)[C@@H](O)[C@@H]3O)[C@H](O)[C@@H](O)[C@@H]2O)[C@H](O)[C@@H](O)[C@H]1O [D-(+)-Raffinose pentahydrate] | % | 118 |
| CCCN(CCC)S(=O)(=O)c1ccc(C(=O)O)cc1 | % | 91 |
| CN(C)c1nc(N(C)C)nc(N(C)C)n1 | % | 99.7 |
| CCN(CC)CC#CCOC(=O)C(O)(c1ccccc1)C1CCCCC1 (configuration not stated) [Oxybutynin (Ditropan)] | % | 104 |

Hi team, please reply with cell viability for each item in this list.
1. Cc1c(C(=O)Nc2ccc(N3C[C@@H](C)O[C@@H](C)C3)nc2)cccc1-c1ccc(OC(F)(F)F)cc1
2. COc1ccc(S(=O)(=O)Nc2nc(-c3cccc([N+](=O)[O-])c3)cs2)cc1OC

91.9
92.7
